Data credit: ChEMBL document CHEMBL5104192

species: Homo sapiens; assay: Selectivity ratio of Ki for human MC3R to Ki for human MC1R
*1 amine or outer side, *2 acyl side, *3 side chain or, on linkers, in order; H or OH if unused. Where a SMILES comes first, the peptide text is derived from it. Bridges are numbered along the chain shown (N, C = ends). [ ]: non-standard residue; d: D form. mXylylene = c1cc(C[*:1])cc(C[*:2])c1; NMeR = CN[C@@H](CCCNC(=N)N)C(=O)O; Nle = CCCC[C@H](N)C(=O)O; X7 = C(C[*:1])C[*:2]

{"columns": ["compound", "Ratio Ki"],
 "data": [
  ["CC[C@H](C)[C@@H]1NC(=O)[C@@H]2CCCN2C(=O)[C@H](Cc2c[nH]c3ccccc23)NC(=O)[C@H](CCCNC(=N)N)N(C)C(=O)[C@H](Cc2ccccc2)NC(=O)[C@H](Cc2cnc[nH]2)NC(=O)[C@H]([C@@H](C)O)NC(=O)[C@@H](NC(C)=O)CSCc2cccc(c2)CSC[C@@H](C(N)=O)NC1=O (Ac-CTHF[NMeR]WPIC-NH2; linker 1-9 via mXylylene)", 83],
  ["CCCC[C@@H]1NC(=O)[C@@H]2CSCCCSC[C@H](NC(=O)[C@H](CCCNC(=N)N)NC(=O)[C@H](CC(=O)O)NC(=O)[C@H](Cc3c[nH]c4ccccc34)NC(=O)[C@H](CCCNC(=N)N)NC(=O)[C@H](Cc3ccccc3)NC(=O)[C@H](Cc3cnc[nH]3)NC(=O)CNC1=O)C(=O)N[C@@H](Cc1cnc[nH]1)C(=O)N[C@@H](Cc1ccccc1)C(=O)N[C@@H](CCCNC(=N)N)C(=O)N[C@@H](Cc1c[nH]c3ccccc13)C(=O)N[C@@H](CCCNC(=N)N)C(=O)N2 (cyclo(CHFRWRC[Nle]GHFRWDR); linker 1-7 via X7)", 15],
  ["CC[C@H](C)[C@@H]1NC(=O)[C@@H]2CCCN2C(=O)[C@H](Cc2c[nH]c3ccccc23)NC(=O)[C@H](CCCNC(=N)N)N(C)C(=O)[C@H](Cc2ccccc2)NC(=O)[C@H](Cc2cnc[nH]2)NC(=O)[C@H]([C@@H](C)O)NC(=O)[C@H](NC(C)=O)CCSCc2ccccc2CSCC[C@H](C(N)=O)NC1=O", 191],
  ["CCCC[C@@H]1NC(=O)[C@@H]2CSC/C(=N/OCC(=O)NCCOCCOCCOCCN=[N+]=[N-])CSC[C@H](NC(=O)[C@H](CCCNC(=N)N)NC(=O)[C@H](CC(=O)O)NC(=O)[C@H](Cc3c[nH]c4ccccc34)NC(=O)[C@H](CCCNC(=N)N)NC(=O)[C@H](Cc3ccccc3)NC(=O)[C@H](Cc3cnc[nH]3)NC(=O)CNC1=O)C(=O)N[C@@H](Cc1cnc[nH]1)C(=O)N[C@@H](Cc1ccccc1)C(=O)N[C@@H](CCCNC(=N)N)C(=O)N[C@@H](Cc1c[nH]c3ccccc13)C(=O)N[C@@H](CCCNC(=N)N)C(=O)N2", 14],
  ["CC[C@H](C)[C@@H]1NC(=O)[C@@H]2CCCN2C(=O)[C@H](Cc2c[nH]c3ccccc23)NC(=O)[C@H](CCCNC(=N)N)N(C)C(=O)[C@H](Cc2ccccc2)NC(=O)[C@H](Cc2cnc[nH]2)NC(=O)[C@H]([C@@H](C)O)NC(=O)[C@H](NC(C)=O)CCSCc2cccc(c2)CSCC[C@H](C(N)=O)NC1=O", 170]
]}

###

species on record: Homo sapiens; assay: Selectivity ratio of EC50 for human MC3R to EC50 for human MC1R
*1 amine or outer side, *2 acyl side, *3 side chain or, on linkers, in order; H or OH if unused. Where a SMILES comes first, the peptide text is derived from it. Bridges are numbered along the chain shown (N, C = ends). [ ]: non-standard residue; d: D form. mXylylene = c1cc(C[*:1])cc(C[*:2])c1; NMeR = CN[C@@H](CCCNC(=N)N)C(=O)O; Nle = CCCC[C@H](N)C(=O)O
Entries and their measured Ratio EC50 follow.

{"columns": ["compound", "Ratio EC50"],
 "data": [
  ["CCCC[C@@H]1NC(=O)[C@@H]2CSSC[C@H](NC(=O)[C@H](CCCNC(=N)N)NC(=O)[C@H](CC(=O)O)NC(=O)[C@H](Cc3c[nH]c4ccccc34)NC(=O)[C@H](CCCNC(=N)N)NC(=O)[C@H](Cc3ccccc3)NC(=O)[C@H](Cc3cnc[nH]3)NC(=O)CNC1=O)C(=O)N[C@@H](Cc1cnc[nH]1)C(=O)N[C@@H](Cc1ccccc1)C(=O)N[C@@H](CCCNC(=N)N)C(=O)N[C@@H](Cc1c[nH]c3ccccc13)C(=O)N[C@@H](CCCNC(=N)N)C(=O)N2 (cyclo(CHFRWRC[Nle]GHFRWDR); disulfide 1-7)", 1],
  ["CC[C@H](C)[C@@H]1NC(=O)[C@@H]2CCCN2C(=O)[C@H](Cc2c[nH]c3ccccc23)NC(=O)[C@H](CCCNC(=N)N)N(C)C(=O)[C@H](Cc2ccccc2)NC(=O)[C@H](Cc2cnc[nH]2)NC(=O)[C@H]([C@@H](C)O)NC(=O)[C@@H](NC(C)=O)CSCc2cccc(c2)CSC[C@@H](C(N)=O)NC1=O (Ac-CTHF[NMeR]WPIC-NH2; linker 1-9 via mXylylene)", 66],
  ["CCCC[C@@H]1NC(=O)[C@@H]2CSC/C(=N/OCC(=O)NCCOCCOCCOCCN=[N+]=[N-])CSC[C@H](NC(=O)[C@H](CCCNC(=N)N)NC(=O)[C@H](CC(=O)O)NC(=O)[C@H](Cc3c[nH]c4ccccc34)NC(=O)[C@H](CCCNC(=N)N)NC(=O)[C@H](Cc3ccccc3)NC(=O)[C@H](Cc3cnc[nH]3)NC(=O)CNC1=O)C(=O)N[C@@H](Cc1cnc[nH]1)C(=O)N[C@@H](Cc1ccccc1)C(=O)N[C@@H](CCCNC(=N)N)C(=O)N[C@@H](Cc1c[nH]c3ccccc13)C(=O)N[C@@H](CCCNC(=N)N)C(=O)N2", 2]
]}

###

target: Melanocortin receptor 3 (Homo sapiens); test: Displacement of [125I]-NDP-alpha-MSH from human MC3R expressed in HEK2936E cell membrane measured after 16 to 23 hrs by 1450 microbeta trilux scintillation proximity assay; assay type: cell membranes
Sequence (P41968 whole entry): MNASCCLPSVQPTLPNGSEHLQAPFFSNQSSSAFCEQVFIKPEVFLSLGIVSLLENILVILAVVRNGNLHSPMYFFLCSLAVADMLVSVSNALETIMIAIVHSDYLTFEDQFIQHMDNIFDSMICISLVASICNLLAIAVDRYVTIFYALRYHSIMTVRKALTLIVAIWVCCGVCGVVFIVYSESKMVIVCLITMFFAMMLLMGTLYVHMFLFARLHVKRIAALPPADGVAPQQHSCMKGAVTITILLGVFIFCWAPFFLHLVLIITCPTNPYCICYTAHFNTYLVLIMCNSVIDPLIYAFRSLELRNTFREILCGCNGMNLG
pKi: −log10 of the molar value. *1 amine or outer side, *2 acyl side, *3 side chain or, on linkers, in order; H or OH if unused. Where a SMILES comes first, the peptide text is derived from it. Bridges are numbered along the chain shown (N, C = ends). [ ]: non-standard residue; d: D form. X4 = C#CCCCCN1C(=O)C([*:1])=C([*:2])C1=O; oXylylene = c1ccc(C[*:2])c(C[*:1])c1; NMeR = CN[C@@H](CCCNC(=N)N)C(=O)O; Nle = CCCC[C@H](N)C(=O)O; X7 = C(C[*:1])C[*:2]
propertyName: pKi

{"columns": ["compound", "measuredValue"],
 "data": [
  ["CCCC[C@@H]1NC(=O)[C@@H]2CSCCCSC[C@H](NC(=O)[C@H](CCCNC(=N)N)NC(=O)[C@H](CC(=O)O)NC(=O)[C@H](Cc3c[nH]c4ccccc34)NC(=O)[C@H](CCCNC(=N)N)NC(=O)[C@H](Cc3ccccc3)NC(=O)[C@H](Cc3cnc[nH]3)NC(=O)CNC1=O)C(=O)N[C@@H](Cc1cnc[nH]1)C(=O)N[C@@H](Cc1ccccc1)C(=O)N[C@@H](CCCNC(=N)N)C(=O)N[C@@H](Cc1c[nH]c3ccccc13)C(=O)N[C@@H](CCCNC(=N)N)C(=O)N2 (cyclo(CHFRWRC[Nle]GHFRWDR); linker 1-7 via X7)", 7.71],
  ["CC[C@H](C)[C@@H]1NC(=O)[C@@H]2CCCN2C(=O)[C@H](Cc2c[nH]c3ccccc23)NC(=O)[C@H](CCCNC(=N)N)N(C)C(=O)[C@H](Cc2ccccc2)NC(=O)[C@H](Cc2cnc[nH]2)NC(=O)[C@H]([C@@H](C)O)NC(=O)[C@@H](NC(C)=O)CSCc2ccccc2CSC[C@@H](C(N)=O)NC1=O (Ac-CTHF[NMeR]WPIC-NH2; linker 1-9 via oXylylene)", 4.91],
  ["C#CCCCCN1C(=O)C2=C(SC[C@@H]3NC(=O)[C@H](CCCNC(=N)N)NC(=O)[C@H](CC(=O)O)NC(=O)[C@H](Cc4c[nH]c5ccccc45)NC(=O)[C@H](CCCNC(=N)N)NC(=O)[C@H](Cc4ccccc4)NC(=O)[C@H](Cc4cnc[nH]4)NC(=O)CNC(=O)[C@H](CCCC)NC(=O)[C@H](CS2)NC(=O)[C@H](CCCNC(=N)N)NC(=O)[C@H](Cc2c[nH]c4ccccc24)NC(=O)[C@H](CCCNC(=N)N)NC(=O)[C@H](Cc2ccccc2)NC(=O)[C@H](Cc2cnc[nH]2)NC3=O)C1=O (cyclo(CHFRWRC[Nle]GHFRWDR); linker 1-7 via X4)", 7.78]
]}
